- test_system: hERG (KCNH2) (Homo sapiens)
- Sequence (Q12809 whole entry): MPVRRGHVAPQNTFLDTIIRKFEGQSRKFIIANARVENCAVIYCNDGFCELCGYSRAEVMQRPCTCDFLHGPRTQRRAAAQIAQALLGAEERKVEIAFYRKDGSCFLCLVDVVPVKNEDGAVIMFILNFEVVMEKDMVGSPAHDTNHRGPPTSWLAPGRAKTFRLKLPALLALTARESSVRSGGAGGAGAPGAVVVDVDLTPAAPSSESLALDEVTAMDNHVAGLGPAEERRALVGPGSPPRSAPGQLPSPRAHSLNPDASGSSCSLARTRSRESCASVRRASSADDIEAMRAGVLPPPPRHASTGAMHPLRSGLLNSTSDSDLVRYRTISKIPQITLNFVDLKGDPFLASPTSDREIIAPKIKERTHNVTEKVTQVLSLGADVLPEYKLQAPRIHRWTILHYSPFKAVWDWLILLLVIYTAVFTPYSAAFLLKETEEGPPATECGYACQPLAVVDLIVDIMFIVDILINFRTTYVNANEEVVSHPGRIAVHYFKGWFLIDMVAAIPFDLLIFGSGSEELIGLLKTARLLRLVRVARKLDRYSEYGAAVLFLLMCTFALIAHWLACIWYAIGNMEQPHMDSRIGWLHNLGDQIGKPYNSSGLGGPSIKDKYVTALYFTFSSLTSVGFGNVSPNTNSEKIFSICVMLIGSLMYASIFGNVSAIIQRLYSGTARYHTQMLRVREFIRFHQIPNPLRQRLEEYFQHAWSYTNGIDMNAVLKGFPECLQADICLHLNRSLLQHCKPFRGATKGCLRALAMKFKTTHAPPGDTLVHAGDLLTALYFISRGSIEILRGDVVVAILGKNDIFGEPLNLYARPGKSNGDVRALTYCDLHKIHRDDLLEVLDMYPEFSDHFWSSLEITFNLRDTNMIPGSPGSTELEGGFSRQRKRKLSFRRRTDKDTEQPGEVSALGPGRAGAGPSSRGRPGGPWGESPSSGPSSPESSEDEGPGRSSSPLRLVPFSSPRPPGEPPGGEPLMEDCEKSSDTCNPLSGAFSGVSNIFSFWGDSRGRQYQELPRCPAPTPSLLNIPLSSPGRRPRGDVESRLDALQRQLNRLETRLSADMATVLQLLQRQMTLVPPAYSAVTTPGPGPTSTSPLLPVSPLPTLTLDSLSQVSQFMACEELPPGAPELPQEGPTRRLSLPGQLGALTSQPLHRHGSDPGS
- test: Inhibition of hERG expressed in HEK293 cells at 1 uM by manual patch clamp assay relative to control
- Type: toxicity, cell-based
- condition: HEK293 cells expressing hERG

{"columns": ["compound", "inhibition at 1 µM [%]"],
 "data": [
  ["Cn1c(=O)n(C2CCC(=O)NC2=O)c2cccc(C#CCO[C@H]3CC[C@H](CN4CCC5(Cc6cc(NC(=O)c7cnn8cccnc78)c(N7CCC(CO)CC7)cc6O5)C4)CC3)c21 (stereo partly specified)", 1],
  ["Cn1c(=O)n(C2CCC(=O)NC2=O)c2cccc(C#CCO[C@H]3CC[C@H](C(=O)N4CCC5(CC4)Cc4cc(NC(=O)c6cnn7cccnc67)c(N6CCC(CO)CC6)cc4O5)CC3)c21 (stereo partly specified)", 2],
  ["Cc1cc(-c2nc(C(=O)Nc3cc4c(cc3N3CCC(CO)CC3)OC3(CCN(C[C@H]5CC[C@H](OCC#Cc6cccc7c6n(C)c(=O)n7C6CCC(=O)NC6=O)CC5)CC3)C4)co2)ccn1 (stereo partly specified)", 12],
  ["Cn1c(=O)n(C2CCC(=O)NC2=O)c2cccc(C#CCO[C@H]3CC[C@H](CN4CCC5(CC4)Cc4cc(NC(=O)c6cnn7cc(CO)cnc67)c(N6CCC(CO)CC6)cc4O5)CC3)c21 (stereo partly specified)", 4],
  ["Cn1c(=O)n(C2CCC(=O)NC2=O)c2cccc(C#CCO[C@H]3CC[C@H](CN4CCC5(CC4)Cc4cc(NC(=O)c6cnc7cccnn67)c(N6CCC(CO)CC6)cc4O5)CC3)c21 (stereo partly specified)", 15],
  ["Cn1c(=O)n(C2CCC(=O)NC2=O)c2cccc(C#CCO[C@H]3CC[C@@H](CN4CCC5(CC4)Cc4cc(NC(=O)c6coc7cccnc67)c(N6CCC(CO)CC6)cc4O5)CC3)c21 (stereo partly specified)", 29]
]}

----------
- test_system: Protein cereblon/Interleukin-1 receptor-associated kinase 4 (Homo sapiens, UniProt Q9NWZ3+Q96SW2)
- Sequence (Q9NWZ3 whole entry): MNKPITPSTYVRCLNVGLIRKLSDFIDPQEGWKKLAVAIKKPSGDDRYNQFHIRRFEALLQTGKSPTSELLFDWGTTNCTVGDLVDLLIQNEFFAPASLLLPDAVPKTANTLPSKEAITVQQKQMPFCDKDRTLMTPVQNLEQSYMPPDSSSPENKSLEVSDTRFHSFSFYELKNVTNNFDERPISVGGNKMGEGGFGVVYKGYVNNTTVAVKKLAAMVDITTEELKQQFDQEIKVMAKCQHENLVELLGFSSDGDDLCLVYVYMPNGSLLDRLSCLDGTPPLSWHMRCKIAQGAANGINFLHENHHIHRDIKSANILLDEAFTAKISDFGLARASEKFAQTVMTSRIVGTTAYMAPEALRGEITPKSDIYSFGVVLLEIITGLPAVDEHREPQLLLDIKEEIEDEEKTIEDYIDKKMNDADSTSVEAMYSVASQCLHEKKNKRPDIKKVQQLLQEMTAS
- Sequence (Q96SW2 whole entry): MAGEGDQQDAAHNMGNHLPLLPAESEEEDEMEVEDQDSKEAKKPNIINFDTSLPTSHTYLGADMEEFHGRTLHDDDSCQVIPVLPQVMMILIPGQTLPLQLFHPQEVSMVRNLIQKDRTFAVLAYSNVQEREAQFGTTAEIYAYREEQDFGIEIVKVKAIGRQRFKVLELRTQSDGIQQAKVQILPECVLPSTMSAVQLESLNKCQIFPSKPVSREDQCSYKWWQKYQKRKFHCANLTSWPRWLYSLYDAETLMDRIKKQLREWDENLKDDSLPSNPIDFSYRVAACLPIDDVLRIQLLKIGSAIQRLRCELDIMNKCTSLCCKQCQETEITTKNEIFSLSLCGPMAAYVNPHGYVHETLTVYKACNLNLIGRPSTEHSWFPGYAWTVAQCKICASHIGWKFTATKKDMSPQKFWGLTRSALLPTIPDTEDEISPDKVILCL
- test: PROTAC activity at CRBN/IRAK4 in human THP-1 cells assessed as induction of IRAK4 degradation incubated for 24 hrs by HiBiT lytic reagent based analysis
- Assay type: cell-based
Reported DC50 values follow for various molecules

{"columns": ["molecule", "unit_descriptor", "DC50"],
 "data": [
  ["Cn1c(=O)n(C2CCC(=O)NC2=O)c2cccc(C#CCO[C@H]3CC[C@@H](CN4CCC5(CC4)Cc4cc(NC(=O)c6cnn7cccnc67)c(N6CCC(CO)CC6)cc4O5)CC3)c21 (stereo not given in full)", "nM", 3.44],
  ["Cn1c(=O)n(C2CCC(=O)NC2=O)c2cccc(C#CCO[C@H]3CC[C@@](F)(CN4CCC5(CC4)Cc4cc(NC(=O)c6cnn7cccnc67)c(N6CCC(CO)CC6)cc4O5)CC3)c21 (stereo not given in full)", "nM", 14.8],
  ["Cn1c(=O)n(C2CCC(=O)NC2=O)c2cccc(C#CCO[C@H]3CC[C@H](C(=O)N4CCC5(CC4)Cc4cc(NC(=O)c6cnn7cccnc67)c(N6CCC(CO)CC6)cc4O5)CC3)c21 (stereo not given in full)", "nM", 2.78],
  ["Cn1c(=O)n(C2CCC(=O)NC2=O)c2cccc(C#CCO[C@H]3CC[C@H](CN4CCC5(CC4)Cc4cc(NC(=O)c6cnn7cccnc67)c(OC(F)F)cc4O5)CC3)c21 (stereo not given in full)", "nM", 13],
  ["Cc1cnc2c(C(=O)Nc3cc4c(cc3N3CCC(CO)CC3)OC3(CCN(C[C@H]5CC[C@H](OCC#Cc6cccc7c6n(C)c(=O)n7C6CCC(=O)NC6=O)CC5)CC3)C4)cnn2c1 (stereo not given in full)", "nM", 1.52]
]}
